Origin of measurements: patent EP1060162B1

Listed below: MIC values for each entry.
Tested on: Trich. mentagrophytes ATCC 9129
assay protocol: Fungistatic effect, serial dilution test (microtitre system)
Type: cell-based
measurement setup: Trichophyton mentagrophytes, ATCC9129, read-out: MHK
measured parameter: MIC (µg/mL)

line_notation=CN(C)Cc1ccc(CC2CCN(C(=O)Oc3ccc(Cl)cc3)CC2)cc1 measured_parameter=MIC experimental_value=1
line_notation=CN(C)Cc1ccc(SC2CCN(C(=O)Oc3ccc(Cl)cc3)CC2)cc1 measured_parameter=MIC experimental_value=16
line_notation=CN(C)Cc1ccc(CC2CCN(C(=O)Oc3ccc(F)cc3)CC2)cc1 measured_parameter=MIC experimental_value=2
line_notation=Cc1ccc(OC(=O)N2CCC(Cc3ccc(CN(C)C)cc3)CC2)cc1.Cl measured_parameter=MIC experimental_value=8
